# Test system: SNB-19 CNS
# Method: NCI tumour cell line growth inhibition, 48 h
# maps each entry to its TGI

I'd like to know its TGI. The molecule in question is `O=P1(c2ccccc2)Nc2ccccc2SSc2ccccc2N1`
30.3 µM

I'd like to know its TGI. The molecule in question is `CCOC(=O)/C=C(\C(=O)OCC)n1ccc(=O)n(Cc2cn(CCCCOC(C)=O)nn2)c1=O`
> 55.6 µM

====

# System: A549 NSCLC
# Method: NCI tumour cell line growth inhibition, 48 h
Observation type: TGI

Observe how each entry below is paired with its result.
> print(dat)
                                   compound  observation.type    result
1      Cc1cc2cc3c(=O)[nH]c(=O)[nH]c3nc2cc1C               TGI  > 100 µM
2     S=c1[nH]c2c(Cl)c(Cl)c(Cl)c(Cl)c2[nH]1               TGI  > 100 µM
3  CC12CCC3c4ccc(O)cc4CCC3C1C/C(=N\O)C2O (configuration not stated)               TGI  > 100 µM
4  CC1(Br)Cc2ccccc2C1=O (configuration not stated)               TGI   32.4 µM

I'd like to know its TGI. The compound in question is `[N-]=[N+]=CC(=O)OC1Cc2ccccc2C1`
> 100 µM

I'd like to know its TGI. The compound in question is `CCOC(=O)/C=C/c1ccc(C#Cc2ccccc2)cc1`
> 100 µM

I'd like to know its TGI. The compound in question is O=c1c2ncn(C3CCCO3)c2n(-c2ccccc2)c(=S)n1-c1ccccc1 (configuration not stated)
> 100 µM

I'd like to know its TGI. The compound in question is `CCc1c(Cl)c(C)cc(O)c1Cl`
> 100 µM

I'd like to know its TGI. The compound in question is `C=C1CC/C=C(\C)CCC[C@H](C)[C@@H](O)[C@@H]2OC(=O)C(=C)[C@@H]2C[C@H]1O`
33.9 µM

I'd like to know its TGI. The compound in question is CCCCC/C=C1\CCC(CN(C)C)C1=O (configuration not stated)
> 63.5 µM

I'd like to know its TGI. The compound in question is `CC1CCN(C(=O)OCc2nc3nc(Cl)nc(N4CCOCC4)c3[nH]2)CC1`
4.81 µM

I'd like to know its TGI. The compound in question is `C[C@H]1C(=O)O[C@@H]2CCN3CC=C(COC(=O)[C@](C)(O)[C@@]1(C)O)[C@H]23`
> 100 µM

====

# Tested on: SK-MEL-2 melanoma
# Method: NCI tumour cell line growth inhibition, 48 h
Observation type: TGI (µM)
Reply with just the number (in µM).

> print(dat)
                                   molecule  number
1  COC12C(COC(N)=O)C3=C(C(=O)C(C)=C(N)C3=O)N1CC1C2N1C (stereo not given)    31.2
2  CS(=O)(=O)Nc1cc(-c2ccc3ncnc(Nc4c(Cl)ccc5c4OCO5)c3c2)cnc1Cl    1.04
3  O=C1c2cc3c(cc2-c2c1c1cc(Cl)c(Cl)cc1c(=O)n2C[C@H](O)CO)OCO3   0.374
4  Cc1cc(N(CCCNc2ccnc3cc(Cl)ccc23)Cc2ccc3c(c2)OCO3)nc(N2CCOCC2)n1   0.457
5  CC1C=CN(N(C)C)C2=C1C(=O)c1cnccc1C2=O (stereo not given)    4.02
6      O=C1C=C(NCCOCCO)C(=O)c2c(O)ccc(O)c21    51.9

I'd like to know its TGI. The molecule in question is `CN(C)C(=S)Sc1ccc([N+](=O)[O-])cc1[N+](=O)[O-]`
9.86

I'd like to know its TGI. The molecule in question is `CCOC(=O)c1c(-c2ccc(OC)cc2)c(C#N)c2c(C#N)c(N)nn2c1N`
26.5

I'd like to know its TGI. The molecule in question is `COC(=O)/C=C\C(C#N)(C#N)N=Cc1cc(Br)cs1`
25.5
